So I've got a bunch of molecules here, and I need their area under concentration-response curve values.
- System: NCI-H295R
- PROTOCOL NOTES: area under concentration-response curve (viability) (AUC (a.u.)); higher = less active
- RECORDED CONDITIONS: 48 h
Give bare numbers.

The examples below pair each entry with its known result.
MOLECULE	area under concentration-response curve
Cc1nc(N)ncc1-c1nc(N2CCOCC2)c2sc(C(C)(C)O)cc2n1	475
CC(NCCc1ccc(O)cc1)C(O)c1ccc(O)cc1 (stereo not drawn)	496
CCn1c(-c2nonc2N)nc2cnc(Oc3cccc(NC(=O)c4ccc(OCCN5CCOCC5)cc4)c3)cc21	511
Cc1cn[nH]c1	524

Record area under concentration-response curve for all entries; do not skip any.
1. Cc1ccc(C(=O)Nc2cccc(C(F)(F)F)c2)cc1Nc1nc(-c2cccnc2)nc2c1cnn2C
2. O=C(/C=C\n1cnc(-c2cc(C(F)(F)F)cc(C(F)(F)F)c2)n1)NNc1ccccn1
3. CC(C)n1c(/C=C/[C@H](O)C[C@H](O)CC(=O)O)c(-c2ccc(F)cc2)c2ccccc21
4. CC1CNc2c(cccc2[S+](=O)([O-])N[C@@H](CCCNC(=N)N)C(=O)N2CC[C@@H](C)C[C@@H]2C(=O)O)C1 (stereo partly drawn)
5. O=C(O)CNC(=O)C1C(=O)N(C2CCCCC2)C(=O)N(C2CCCCC2)C1=O
6. CN1\N=C(N)/C2=C[N]([C@@H]3O[C@H](CO[P](O)(O)=O)[C@@H](O)[C@H]3O)C4=C2C1=NC=N4
7. Cn1cc(-c2ccc3nnc(Sc4ccc5ncccc5c4)n3n2)cn1
8. Cn1cc(/C=C/C(=O)c2cccc(F)c2)cc1/C=C/C(=O)NO

A.
1. 477
2. 271
3. 567
4. 507
5. 479
6. 493
7. 525
8. 439

Record area under concentration-response curve for all entries; do not skip any.
1. NC1=NC=C(C=C1)C2=CC=C3N=CC\4=C(N(C(=O)\C=C4)C5=CC(=CC=C5)C(F)(F)F)C3=C2
2. CCN(CC)C(=S)SSC(=S)N(CC)CC

A.
1: 294; 2: 472

Record area under concentration-response curve for all entries; do not skip any.
1. CCOc1cc2c(c(F)c1OCC)C(=N)N(CC(=O)c1cc(N3CCOCC3)c(OC)c(C(C)(C)C)c1)C2
2. N[S+](=O)([O-])NCCNc1nonc1/C(=N/O)Nc1ccc(F)c(Br)c1
3. CC[C@H](NC(C)C)[C@H](O)C1=CC=C(O)C2=C1\C=C/C(=O)N2
4. CC(=O)O[C@H]1C[C@@H]2CC[C@@H]3[C@H](CC[C@@]4(C)[C@H]3C[C@H]([N+]3(C)CCCCC3)[C@@H]4OC(C)=O)[C@@]2(C)C[C@@H]1N1CCCCC1.[Br-]
5. CC[C@H](/C=C/[C@@H](C)[C@H]1CC[C@H]2[C@@H]3CC=C4C[C@@H](O)CC[C@]4(C)[C@H]3CC[C@]12C)C(C)C
6. CCCCN(CCCC)CC(O)c1cc(Cl)cc2c1-c1ccc(Cl)cc1/C2=C/c1ccc(Cl)cc1 (stereo not drawn)

A.
1. 492
2. 468
3. 564
4. 610
5. 602
6. 582

Record area under concentration-response curve for all entries; do not skip any.
1. COc1cccc2c1C(=O)c1c(O)c3c(c(O)c1C2=O)C[C@@](O)(C(=O)CO)C[C@@H]3O[C@H]1C[C@H](N)[C@@H](O)[C@H](C)O1
2. NC/1=N/C(=O)N(C[C@@H](CO)OC[P](O)(O)=O)/C=C1
3. Cc1nn(Cc2ccccc2Cl)c(C)c1CN(C)CC(O)COc1ccc(Cl)cc1 (stereo not drawn)
4. CCN(CC)CCCCNc1ncc2cc(-c3cc(OC)cc(OC)c3)c(NC(=O)NC(C)(C)C)nc2n1
5. CNC(=O)Cn1cc(-c2ccc3c(c2)C(F)CC32NC(=O)N(CC(=O)N(Cc3ccc(F)cc3)C(C)C(F)(F)F)C2=O)cn1 (stereo not drawn)
6. C[C@@H]1C(=O)OC2[C@H](O)[C@]34[C@H]5C[C@@H](C(C)(C)C)[C@]36[C@@H](OC(=O)[C@@H]6O)O[C@@]4(C(=O)O5)[C@]21O (stereo partly drawn)

A.
[510, 496, 482, 476, 512, 532]

Record area under concentration-response curve for all entries; do not skip any.
1. CCn1c(C(=O)N(C2CC2)C2CC2)cc2c3c(ncn3C)c(Nc3cc(C)n(C)n3)nc21
2. CCNC(=O)C[C@@H]1\N=C(C2=CC=C(Cl)C=C2)/C3=C(C=CC(=C3)OC)[N]4C(=NN=C14)C
3. CCOC(=O)C(C)OC1=CC=CC2=C1\C=C/N(CC(=O)NC3=CC=C4OCCOC4=C3)C2=O (stereo not drawn)
4. O=C1CCCC(=O)C1C(=O)c1ccc(C(F)(F)F)cc1[N+](=O)[O-]
5. Cc1ccc(NC(=O)Nc2cc(C(F)(F)F)ccc2F)cc1Nc1ccc2c(c1)NC(=O)/C2=C\c1ccc[nH]1
6. CN1CCN(c2ccc3nc(-c4cc(C(C)(C)C)c(OCCCC(=O)NCCCN=[N+]=[N-])c(C(C)(C)C)c4)[nH]c3c2)CC1
7. C[N+]1(C)[C@@H]2CC(OC(=O)[C@H](CO)c3ccccc3)C[C@H]1[C@@H]1O[C@@H]12 (stereo partly drawn)

A.
540
457
538
545
476
508
500

###

- System: CU-ACC2
- PROTOCOL NOTES: area under concentration-response curve (viability) (AUC (a.u.)); higher = less active
- RECORDED CONDITIONS: 48 h
So I've got a bunch of molecules here, and I need their area under concentration-response curve values.
Answers are plain numbers.

The examples below pair each entry with its known result.
MOLECULE	STUDY SYSTEM	NUMERIC VALUE
CCN(CC)CCNC(=O)c1c(C)[nH]c(/C=C2\C(=O)Nc3ccc(F)cc32)c1C	CU-ACC2	529
C=CCNc1c(O)cc2c(O)c1C[C@@H](C)C[C@H](OC)[C@H](O)[C@@H](C)/C=C(/C)[C@H](OC(N)=O)[C@@H](OC)/C=C\C=C(\C)C(=O)N2	CU-ACC2	335
COC(=O)/C=C/C(=O)N(O)CCCCNCc1ccc(COC(=O)Nc2cccc3ccccc23)cc1	CU-ACC2	245
Cc1cc(Nc2cc(NC(=O)c3c(Cl)cccc3Cl)ccn2)nc(N)n1	CU-ACC2	522
O=C(Nc1ccc(OC(F)(F)F)cc1)c1sccc1NCc1ccnc2ccccc12	CU-ACC2	639

Record area under concentration-response curve for all entries; do not skip any.
1. CCN1CCN(Cc2ccc(NC(=O)Nc3ccc(Oc4cc(NC)ncn4)cc3)cc2C(F)(F)F)CC1
2. O=[S+]([O-])(c1cccc2cnccc12)N1CCCNCC1
3. Cc1cnc(Nc2ccc(F)cc2Cl)nc1-c1c[nH]c(C(=O)N[C@H](CO)c2cccc(Cl)c2)c1
4. COc1ccc([S+](=O)([O-])Nc2cc(-c3csc(C#N)c3)ccc2C)cc1

A.
[526, 560, 572, 529]

Record area under concentration-response curve for all entries; do not skip any.
1. CC\1=C(C(\N=C(/N1)C2=CC(=NC=C2)Cl)C3=C(F)C=C(Cl)C=C3)/C(=O)NC4=C(F)C=C5[NH]N=CC5=C4 (configuration not stated)
2. CCN1C[C@]2(OC(=O)c3ccccc3NC(C)=O)CC[C@H](OC)[C@@]34[C@@H]2C[C@@H]([C@@H]13)[C@@]1(O)C[C@H](OC)[C@H]2C[C@@H]4[C@]1(O)[C@H]2OC

A.
1: 466; 2: 499

Record area under concentration-response curve for all entries; do not skip any.
1. CN(C1=CC=CC=C1)C(=O)C/2=C(O)/C3=C(C=CC=C3)N(C)C2=O
2. C[N]1C=C(C2=CC=CC=C12)/C3=C(/C(=O)NC3=O)C4=C[N](C)C5=CC(=CC=C45)[N+]([O-])=O
3. COc1cc2c(Nc3ccc(Cl)c(Cl)c3F)ncnc2cc1OC[C@@H]1C[C@@H]2CN(C)C[C@@H]2C1
4. O=C1[C@H](Cc2ccc(O)cc2)N2C(=O)CCN(C(=O)NCc3ccccc3)[C@H]2CN1Cc1cccc2ccccc12
5. COC(c1ccccc1)(c1ccccc1)[C@H](Oc1nc(C)cc(C)n1)C(=O)O
6. CN1CCN(CCCNc2ncc(Cl)c(-c3cc4c(C(=O)NC5CC5)cccc4s3)n2)CC1

A.
[399, 608, 515, 554, 586, 557]

###

- Tested on: CU-ACC1
- PROTOCOL NOTES: area under concentration-response curve (viability) (AUC (a.u.)); higher = less active
- RECORDED CONDITIONS: 48 h
Answer FALSE if area under concentration-response curve is under 500, and TRUE if it is 500 or more.

>>> print(df.to_string())
                                   molecule  study_system  qualitative_label
0            Oc1ccc(/C=C/c2cc(O)cc(O)c2)cc1       CU-ACC1              FALSE
1  CC(=O)OCC(=O)[C@@]12\N=C(C)/O[C@@H]1C[C@H]3[C@@H]4CCC/5=C/C(=O)/C=C\[C@]5(C)[C@H]4[C@@H](O)C[C@]23C       CU-ACC1              FALSE
2  O=C(O)CCNc1cc(N2CCc3ccccc3CC2)nc(-c2cccnc2)n1       CU-ACC1               TRUE
3  O=C1\C=C(OC2=C(C=CC=C12)C3=CC=CC4=C3SC5=C4C=CC=C5)\N6CCOCC6       CU-ACC1              FALSE
4  O=C(c1ccc(Nc2nc(C3CC3)cn3c(-c4cn[nH]c4)cnc23)c(F)c1)N1CCOCC1       CU-ACC1              FALSE

Attention now turns to another entry.
Q. Dear colleague, could you confirm whether `CCCCNc1ncc(-c2ccc(CN3CCOCC3)cn2)c(N[C@H]2CC[C@H](O)CC2)n1` has area under concentration-response curve at or above 500?
A. TRUE
